# SUBJECT_OF_TEST: Histone deacetylase 8 (Homo sapiens, UniProt Q9BY41)
# Sequence (Q9BY41 whole entry): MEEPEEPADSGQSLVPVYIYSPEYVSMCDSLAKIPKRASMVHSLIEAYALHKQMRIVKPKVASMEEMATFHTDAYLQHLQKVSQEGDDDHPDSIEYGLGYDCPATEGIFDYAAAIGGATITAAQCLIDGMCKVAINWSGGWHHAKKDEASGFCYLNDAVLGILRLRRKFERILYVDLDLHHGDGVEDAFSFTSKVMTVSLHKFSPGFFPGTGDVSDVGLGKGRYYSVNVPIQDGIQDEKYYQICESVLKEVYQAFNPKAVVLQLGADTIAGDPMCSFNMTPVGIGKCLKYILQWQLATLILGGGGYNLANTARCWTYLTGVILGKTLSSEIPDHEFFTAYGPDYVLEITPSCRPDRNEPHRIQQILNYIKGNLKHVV
# ASSAY_PROCEDURE: Inhibition of Flag tagged human recombinant HDAC8 expressed in Sf21 cells
OBSERVATION_TYPE: IC50 (µM)
Reply numerically in µM, unit not repeated.

SMILES_DATA | NUMERIC_RESULT
O=C(/C=C/c1ccc(-c2ccc3ncnc(Nc4ccc(OCc5cccc(F)c5)c(Cl)c4)c3c2)o1)NO | 11

Let us examine a further case.
Quick one: IC50 of `O=C(NO)c1ccc(-c2ccc3ncnc(Nc4ccc(OCc5cccc(F)c5)c(Cl)c4)c3c2)s1` ?
0.98

----------
# SUBJECT_OF_TEST: Epidermal growth factor receptor (Homo sapiens)
# Sequence (P00533 whole entry): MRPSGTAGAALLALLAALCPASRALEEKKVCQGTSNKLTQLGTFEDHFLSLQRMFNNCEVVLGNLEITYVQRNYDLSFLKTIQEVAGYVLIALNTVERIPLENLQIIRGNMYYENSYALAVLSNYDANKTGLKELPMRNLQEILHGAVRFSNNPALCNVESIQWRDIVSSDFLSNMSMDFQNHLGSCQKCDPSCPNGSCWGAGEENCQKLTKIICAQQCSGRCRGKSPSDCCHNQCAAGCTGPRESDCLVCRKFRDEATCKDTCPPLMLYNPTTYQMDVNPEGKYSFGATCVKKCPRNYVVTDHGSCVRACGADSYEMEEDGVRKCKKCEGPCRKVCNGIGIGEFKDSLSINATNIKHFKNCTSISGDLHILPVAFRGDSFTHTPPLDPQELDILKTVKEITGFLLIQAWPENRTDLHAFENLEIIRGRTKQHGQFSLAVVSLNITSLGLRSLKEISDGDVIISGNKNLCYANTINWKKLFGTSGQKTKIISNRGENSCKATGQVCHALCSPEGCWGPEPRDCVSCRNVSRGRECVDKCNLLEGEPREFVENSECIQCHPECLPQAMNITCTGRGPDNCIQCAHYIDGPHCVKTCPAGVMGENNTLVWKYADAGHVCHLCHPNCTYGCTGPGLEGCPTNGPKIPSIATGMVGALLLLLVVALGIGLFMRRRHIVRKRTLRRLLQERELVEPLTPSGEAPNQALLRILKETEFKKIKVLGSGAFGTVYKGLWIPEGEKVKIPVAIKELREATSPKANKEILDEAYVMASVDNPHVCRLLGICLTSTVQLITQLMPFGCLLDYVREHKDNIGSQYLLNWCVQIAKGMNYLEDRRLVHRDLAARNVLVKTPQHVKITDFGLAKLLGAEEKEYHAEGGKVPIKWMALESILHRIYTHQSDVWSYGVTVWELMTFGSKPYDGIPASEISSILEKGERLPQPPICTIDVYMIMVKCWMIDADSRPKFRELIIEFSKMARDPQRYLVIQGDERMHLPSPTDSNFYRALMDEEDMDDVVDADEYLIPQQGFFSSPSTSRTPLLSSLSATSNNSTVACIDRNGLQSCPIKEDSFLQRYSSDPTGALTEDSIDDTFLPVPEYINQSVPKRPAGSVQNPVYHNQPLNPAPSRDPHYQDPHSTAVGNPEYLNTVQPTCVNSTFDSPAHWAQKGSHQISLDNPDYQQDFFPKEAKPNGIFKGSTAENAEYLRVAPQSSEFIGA
# ASSAY_PROCEDURE: Inhibition of EGF-induced EGFR phosphorylation in human CAL27 cells overexpressing EGFR after 16 hrs by Western blot
# Assay type: cell-based, CAL-27
OBSERVATION_TYPE: pIC50
Interpret pIC50 as the negative base-10 log of the concentration measured in mol/L.

Suppose we examine the compound `O=C(/C=C/c1cccc(-c2ccc3ncnc(Nc4ccc(OCc5cccc(F)c5)c(Cl)c4)c3c2)c1)NO` ; what pIC50 value has been reported?
6.30

----------
Items are presented alongside their recorded pIC50.
# SUBJECT_OF_TEST: Histone deacetylase 8 (Homo sapiens)
# ASSAY_PROCEDURE: Inhibition of Flag tagged human recombinant HDAC8 expressed in Sf21 cells
pIC50: −log10 of the molar value.

SMILES_DATA | OBSERVATION_TYPE | RESULT
Nc1ccccc1NC(=O)/C=C/c1cccc(-c2ccc3ncnc(Nc4ccc(OCc5cccc(F)c5)c(Cl)c4)c3c2)c1 | pIC50 | < 4.49
O=C(/C=C/c1ccc(-c2ccc3ncnc(Nc4ccc(OCc5cccc(F)c5)c(Cl)c4)c3c2)cc1)NO | pIC50 | 4.51
O=C(/C=C/c1cccc(-c2ccc3ncnc(Nc4ccc(OCc5cccc(F)c5)c(Cl)c4)c3c2)c1)NO | pIC50 | 6.20
Nc1ccccc1NC(=O)/C=C/c1ccc(-c2ccc3ncnc(Nc4ccc(OCc5cccc(F)c5)c(Cl)c4)c3c2)cc1 | pIC50 | < 4.49
Nc1ccccc1NC(=O)c1ccc(-c2ccc3ncnc(Nc4ccc(OCc5cccc(F)c5)c(Cl)c4)c3c2)s1 | pIC50 | < 4.49

Can you look up the measured pIC50 of `CS(=O)(=O)CCNCc1ccc(-c2ccc3ncnc(Nc4ccc(OCc5cccc(F)c5)c(Cl)c4)c3c2)o1` for me?
< 5.00

Continue with `O=C(NO)c1ccc(-c2ccc3ncnc(Nc4ccc(OCc5cccc(F)c5)c(Cl)c4)c3c2)o1`
5.11

Try this compound next: `Nc1ccccc1NC(=O)c1ccc(-c2ccc3ncnc(Nc4ccc(OCc5cccc(F)c5)c(Cl)c4)c3c2)o1`
< 4.49

----------
// IC50 lookup, one value per entry
# SUBJECT_OF_TEST: Serine/threonine-protein kinase PLK1 (Homo sapiens)
# Sequence (P53350 whole entry): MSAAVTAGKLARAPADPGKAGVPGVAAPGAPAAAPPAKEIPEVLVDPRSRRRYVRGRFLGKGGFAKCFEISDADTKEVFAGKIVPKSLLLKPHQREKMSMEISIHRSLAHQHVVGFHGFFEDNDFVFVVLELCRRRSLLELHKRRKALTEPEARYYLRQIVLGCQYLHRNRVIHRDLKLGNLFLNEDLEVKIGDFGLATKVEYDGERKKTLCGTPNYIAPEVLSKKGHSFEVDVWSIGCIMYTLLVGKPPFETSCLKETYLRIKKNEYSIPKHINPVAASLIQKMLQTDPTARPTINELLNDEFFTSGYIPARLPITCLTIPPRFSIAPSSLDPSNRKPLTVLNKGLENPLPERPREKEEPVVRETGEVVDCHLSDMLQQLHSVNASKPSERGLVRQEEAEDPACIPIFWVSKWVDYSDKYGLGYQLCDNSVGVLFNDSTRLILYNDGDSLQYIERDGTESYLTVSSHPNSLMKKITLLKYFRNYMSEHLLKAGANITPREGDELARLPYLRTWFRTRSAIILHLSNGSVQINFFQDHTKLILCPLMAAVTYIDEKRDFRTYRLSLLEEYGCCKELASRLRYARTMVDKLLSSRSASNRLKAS
Give just the number in µM; leave the unit off.

SMILES_DATA | IC50 (µM)
Nc1ccccc1NC(=O)c1ccc(-c2ccc3ncnc(Nc4ccc(OCc5cccc(F)c5)c(Cl)c4)c3c2)s1 | 5.6
O=C(/C=C/c1ccc(-c2ccc3ncnc(Nc4ccc(OCc5cccc(F)c5)c(Cl)c4)c3c2)cc1)NO | 9.1
O=C(/C=C/c1ccc(-c2ccc3ncnc(Nc4ccc(OCc5cccc(F)c5)c(Cl)c4)c3c2)s1)NO | 2.7

Entry `Nc1ccccc1NC(=O)/C=C/c1cccc(-c2ccc3ncnc(Nc4ccc(OCc5cccc(F)c5)c(Cl)c4)c3c2)c1` : reported IC50 = ?
5.5
